test system: MYLK4; conditions: concentration: 1 μM, replicates: in singlicate; n = 1;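 further: KINOMEscan kinase panel screen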
Friendly reminder: %Inh below 6% is yes (1), at or above is no (0).

[[record]]
molecule = "COc1cc2ncn(-c3cc(OCCCc4ccccc4)c(C(N)=O)s3)c2cc1OC [GSK205189]"
class_assignment = "no (0)"

[[record]]
molecule = "Nc1n[nH]c2nnc(-c3ccccc3)c(-c3ccccc3)c12 [GW554060]"
class_assignment = "yes (1)"

[[record]]
molecule = "CN(C)c1cc(-c2ccc3c(N)n[nH]c3c2)nc(N)n1 [GSK2219329]"
class_assignment = "yes (1)"

[[record]]
molecule = "Cc1nn2c(=O)cc(N3CCOCC3)nc2n1Cc1cccc(Cl)c1Cl [GSK2342769]"
class_assignment = "yes (1)"

[[record]]
molecule = "Nc1nc(-c2ccccc2F)c(-c2ccnc3ccccc23)s1 [GW560459]"
class_assignment = "yes (1)"

[[record]]
molecule = "Cc1nnc(-c2ccc3ncn(-c4ccc(S(C)=O)cc4)c3c2)o1 (stereo not shown)"
class_assignment = "no (0)"

[[record]]
molecule = "COc1ccc(-n2cnc3c(N)ncnc32)cc1 [SKF-97236]"
class_assignment = "yes (1)"

[[record]]
molecule = "O=C(Nc1n[nH]c2cc(-c3ccccc3F)ccc12)C1CC1 [SB-733371]"
class_assignment = "yes (1)"

[[record]]
molecule = "Nc1nccc2scc(-c3ccc4c(c3)CCN4C(=O)Cc3ccccc3)c12 [GSK2576924]"
class_assignment = "no (0)"


###

system: DDR2; conditions: concentration: 1 μM, replicates: in singlicate; n = 1
Would you mind classing the entries by %Inh? Ranges: low: < 1%; mid: ≥ 1% and < 20%; high: ≥ 20%

[[record]]
compound = "CCn1c(-c2nonc2N)nc2ccccc21 [SB-693162/GW549034]"
class_assignment = "low"

[[record]]
compound = "CCC(=O)c1c(-c2ccccc2)c2cc(Cl)ccc2c(=O)n1Cc1ccc(C(=O)O)cc1"
class_assignment = "high"

[[record]]
compound = "C[C@@H]1CC[C@H](C(=O)NC2CCCCC2)CN1c1cc(-c2ccc3c(N)n[nH]c3c2)nc(N)n1 [GSK2291363]"
class_assignment = "mid"

[[record]]
compound = "Cc1cc(Nc2nc(-c3cccc(C)n3)nc3ccccc23)ccn1 [GW872411]"
class_assignment = "low"

[[record]]
compound = "O=C1NC(=O)C(c2ccccc2)=C1Nc1cccc(O)c1 [SB-390534]"
class_assignment = "low"

[[record]]
compound = "Cc1c(Cn2c(C)nn3c(=O)cc(N4CCO[C@H](C)C4)nc23)cccc1C(F)(F)F [GSK2373690]"
class_assignment = "mid"

[[record]]
compound = "COC(=O)c1c(-c2ccccc2)c2cc(Br)ccc2c(=O)n1Cc1ccc(NC(=O)CCC(=O)O)cc1"
class_assignment = "high"

[[record]]
compound = "COC(=O)c1c(-c2ccccc2)c2cc(Br)ccc2c(=O)n1Cc1ccc(S(C)(=O)=O)cc1"
class_assignment = "mid"

[[record]]
compound = "COc1ccc(-n2cnc3c(N)ncnc32)cc1 [SKF-97236]"
class_assignment = "low"

[[record]]
compound = "Nc1n[nH]c2ncc(-c3ccccc3)cc12 [SB-517081]"
class_assignment = "high"

[[record]]
compound = "COc1ccc(-c2coc3ccc(-c4nnc(SCc5cccc(C#N)c5)o4)cc23)cc1"
class_assignment = "mid"

[[record]]
compound = "Cc1nn2c(=O)cc(N3CCOCC3)nc2n1Cc1cccc(Cl)c1Cl [GSK2342769]"
class_assignment = "low"

[[record]]
compound = "O=C(NCCNc1ccnc(Nc2ccc(F)cc2)n1)Nc1ccc2c(c1)OCO2 [GSK1379882]"
class_assignment = "mid"

[[record]]
compound = "O=C(Nc1n[nH]c2cc(-c3ccccc3F)ccc12)C1CC1 [SB-733371]"
class_assignment = "mid"

[[record]]
compound = "Nc1ncnc2c1ncn2-c1cccc(F)c1 [SKF-97560]"
class_assignment = "high"

[[record]]
compound = "O=c1cc(N2CCOCC2)nc2n(Cc3ccc(F)c(Cl)c3)ccn12 [GSK2297099]"
class_assignment = "low"

[[record]]
compound = "COC(=O)c1c(-c2ccccc2)c2cc(C)ccc2c(=O)n1Cc1ccccc1"
class_assignment = "high"

[[record]]
compound = "COc1cc(Nc2nccc(N3CCC(NC(=O)C4COc5ccccc5O4)C3)n2)cc(OC)c1OC (stereo not shown) [GSK1379761]"
class_assignment = "high"

